# Test system: CAOV3
# EXPERIMENT DESCRIPTION: Primary qHTS to identify gynecologic anti-cancer compounds using libraries of approved drugs and bioactive compounds (AID 1345084); further: nearly all actives have a fitted effect of over 55% in size
# TEST CONDITIONS: Gynecologic cancer cell panel viability, ATPlite luminescence, 48 h; series mostly up to 57.5 µM
Inconclusive results are not listed. The source made the active and inactive calls. The call rests on the fitted dose curve; in most records, active means well fitted cell-killing curve with a large enough effect; inconclusive means small, poorly fitted or top-dose-only effect, or effect the other way; inactive means flat fitted curve, though single readings scatter.
Entry note: the call must match one of 1.0 (active), 0.0 (inactive)

Ask: Can you look up the reported call for CCNC(=O)Nc1ncc(-c2cc(-c3c(C)cc(OC)cc3C)nc(-c3cnccn3)n2)s1 for me?
Reply: 0.0

Ask: Further, for Cc1cc(Nc2ncc3cc(-c4c(Cl)cccc4Cl)c(=O)n(C)c3n2)ccc1F ?
Reply: 1.0

Ask: Subsequent entry: O=C(NCc1ccc(F)cc1)C(=O)c1c[nH]c2ccccc12
Reply: 0.0

Ask: Same question, C=CC[C@]12C[C@@H](OC)C(=O)C(OC)=C1O[C@@H](c1cc(OC)c3c(c1)OCO3)[C@@H]2C this time
Reply: 0.0

Ask: Try this molecule next: COc1ccc(-c2cnc(-c3cccc4c3-c3ccccc3C4=O)o2)cc1
Reply: 0.0

Ask: Ok, now C=C(C)C1CCC2(C(=O)O)CCC3(C(=O)O)C(CCC4C5(C)CCC(O)C(C)(C(=O)O)C5CCC43C)C12 (stereo not drawn)
Reply: 0.0

Ask: Note, next up: CC(=O)O[C@@H]1C[C@H](O)[C@@]23CO[C@H](O)[C@]1(C)C2C[C@@H](O)[C@]1(C)C3C(=O)[C@H](OC(C)=O)[C@@]2(C)[C@H](c3ccoc3)C[C@H]3O[C@]321 (stereo partly drawn)
Reply: 1.0

Ask: And then CSc1ccc(C(=O)N[C@@H]2CCCC[C@@H]2NC(=O)CNC(=O)c2cc(C(F)(F)F)ccc2NC(=O)NC(C)C)cc1 , what is it?
Reply: 0.0

meta.source: PubChem BioAssay (NCATS)
